tested on: 931267-113-T-J1-PDC multicell spheroid viability; assay: Anticancer human tumor 931267-113-T-J1-PDC patient-derived colon adenocarcinoma cell line growth inhibition [PI3K]; conditions: second compound 0.00316 µM; first compound 0.1 µM; active compounds read low;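 further: viability read 7 days after compound addition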
# key: entry, value: viability, T/C
Enter your answer as a number in %; do not include the unit.

# molecule, tested.on, viability, T/C, %
records = [
    ("CNC(=O)c1ccc(N2C(=S)N(c3ccc(C#N)c(C(F)(F)F)c3)C(=O)C2(C)C)cc1F + COc1c(OCCCN2CCOCC2)ccc2c3n(c(=NC(=O)c4cnc(N)nc4)nc12)CCN3", "931267-113-T-J1-PDC multicell spheroid viability", 107),
    ("C=CC(=O)N1CCN(c2nc(=O)n(-c3c(C)ccnc3C(C)C)c3nc(-c4c(O)cccc4F)c(F)cc23)C(C)C1 (stereo not drawn) + CC(Nc1ccc2c(c1)OCCn1cc(N3C(=O)OCC3C(F)F)nc1-2)C(N)=O", "931267-113-T-J1-PDC multicell spheroid viability", 106),
]

As a next step, examine the molecule that follows.
Please indicate viability, T/C recorded for CC(C)n1nc(-c2ccc3oc(N)nc3c2)c2c(N)ncnc21 + CC(Nc1ccc2c(c1)OCCn1cc(N3C(=O)OCC3C(F)F)nc1-2)C(N)=O
42.5

meta.source: PubChem BioAssay AID1963970
